Source listed as patent US20060183194A1.

Biological target: T1, ErbB-3 receptor-Ig fusion (human, UniProt P21860 20-643)
T1 construct: extracellular domain;range 224-C-terminus; also called ErbB-3-Ig; 3/3 homodimer; not shown: human IgG heavy chain constant region from His224 (hinge) on
T1 sequence (P21860 other isoform, or with tags, fused parts or gaps): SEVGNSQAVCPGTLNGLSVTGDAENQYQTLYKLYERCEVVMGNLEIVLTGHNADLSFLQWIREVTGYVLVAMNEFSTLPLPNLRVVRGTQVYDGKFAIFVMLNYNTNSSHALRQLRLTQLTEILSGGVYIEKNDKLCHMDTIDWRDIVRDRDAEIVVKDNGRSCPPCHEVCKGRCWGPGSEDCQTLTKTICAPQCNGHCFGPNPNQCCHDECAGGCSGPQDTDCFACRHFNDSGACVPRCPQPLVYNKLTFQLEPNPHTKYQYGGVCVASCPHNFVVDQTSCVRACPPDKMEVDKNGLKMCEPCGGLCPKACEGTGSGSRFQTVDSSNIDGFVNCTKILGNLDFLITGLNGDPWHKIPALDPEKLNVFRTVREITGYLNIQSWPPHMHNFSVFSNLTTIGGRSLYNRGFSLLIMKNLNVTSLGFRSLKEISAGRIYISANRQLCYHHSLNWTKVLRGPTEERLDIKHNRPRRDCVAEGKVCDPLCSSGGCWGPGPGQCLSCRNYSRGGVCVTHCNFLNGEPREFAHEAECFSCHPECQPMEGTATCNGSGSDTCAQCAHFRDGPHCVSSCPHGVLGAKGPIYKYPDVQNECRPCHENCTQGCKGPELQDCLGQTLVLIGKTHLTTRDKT
Test: phage ELISA; soluble ErbB-3-Ig as competitor
binders and their reported EC50
Report the figure in nM without appending any unit label.

binder	EC50 (nM)
HRG-β1 177-244 S177A on phage (ligand, not shown: M13 pIII C-terminal fragment (from pIII residue 247), the phage display partner) AHLVKCAEKEKTFCVNGGECFMVKDLSNPSRYLCKCPNEFTGDRCQNYVMASFYKHLGIEFMEAEELY	67

# context switch: different binder, same EC50
Return reported EC50. Input binder: HRG-β1 177-244 P205A on phage (ligand, not shown: M13 pIII fragment from residue 247 to the C-terminus (phage display carrier) and any cloning-site junction) SHLVKCAEKEKTFCVNGGECFMVKDLSNASRYLCKCPNEFTGDRCQNYVMASFYKHLGIEFMEAEELY
22
